target: P70S6K (T412E mutant) (Homo sapiens (Human), UniProt P23443, T412E); test: P70S6K enzyme assay; details: 3 nM P70S6K T412E mutant, 24 μM ATP, 1 μM FITC-AHA-AKRRRLSSLRA-OH substrate peptide, 90 min at 25° C.
Sequence (P23443 whole entry T412E): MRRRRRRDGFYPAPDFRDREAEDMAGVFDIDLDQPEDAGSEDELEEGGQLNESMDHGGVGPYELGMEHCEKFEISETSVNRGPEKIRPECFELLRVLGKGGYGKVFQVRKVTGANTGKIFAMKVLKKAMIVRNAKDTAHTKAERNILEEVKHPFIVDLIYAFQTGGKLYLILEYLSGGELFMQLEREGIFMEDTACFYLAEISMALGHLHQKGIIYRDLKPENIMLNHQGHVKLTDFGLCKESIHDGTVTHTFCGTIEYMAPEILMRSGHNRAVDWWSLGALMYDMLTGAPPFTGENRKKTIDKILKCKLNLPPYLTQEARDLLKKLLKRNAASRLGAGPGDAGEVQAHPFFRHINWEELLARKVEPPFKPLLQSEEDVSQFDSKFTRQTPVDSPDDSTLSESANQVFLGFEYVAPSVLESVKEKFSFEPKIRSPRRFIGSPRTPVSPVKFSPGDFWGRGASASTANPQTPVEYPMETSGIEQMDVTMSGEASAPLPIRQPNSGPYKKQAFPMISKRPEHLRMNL
pIC50: −log10 of the molar value.
Each entry below carries its recorded pIC50.

Compound	Assay system	pIC50
N#Cc1c(N)ncnc1N1CCN(C(CN)c2ccc(C(F)(F)F)cc2)CC1 (centres unmarked) [Example 36]	P70S6K (T412E mutant) (Homo sapiens (Human), UniProt P23443, T412E)	7.85
NCC(c1ccc(C(F)(F)F)cc1)C1CCN(c2ncnc(N)c2Br)CC1 (centres unmarked) [Example 51]	P70S6K (T412E mutant) (Homo sapiens (Human), UniProt P23443, T412E)	7.39
CN(C)CCNC(c1ccc(F)cc1)C1CCN(c2ncnc(N)c2-c2ccc(F)cc2)CC1 (centres unmarked) [Example 150]	P70S6K (T412E mutant) (Homo sapiens (Human), UniProt P23443, T412E)	7.48
N#Cc1c(N)ncnc1N1CCC(N)(C(=O)N[C@@H](CC(N)=O)c2ccc(Cl)cc2)CC1 [Example 221]	P70S6K (T412E mutant) (Homo sapiens (Human), UniProt P23443, T412E)	6.85
Nc1ncnc(N2CCN(C(CN3CCC3)c3cccc(Cl)c3Cl)CC2)c1-c1cn[nH]c1 (centres unmarked) [Example 126]	P70S6K (T412E mutant) (Homo sapiens (Human), UniProt P23443, T412E)	6.41
Nc1ncnc(N2CC[C@](N)(CNC(=O)c3ccc(F)cc3F)C2)c1-c1ccc(F)cc1 (single isomer, unassigned) [Example 249]	P70S6K (T412E mutant) (Homo sapiens (Human), UniProt P23443, T412E)	8.23
CN(C)CC(c1ccc(C(F)(F)F)cc1)N1CCN(c2ncnc(N)c2-c2ccc(C(=O)O)cc2)CC1 (centres unmarked) [Example 26]	P70S6K (T412E mutant) (Homo sapiens (Human), UniProt P23443, T412E)	7.35
Nc1ncnc(N2CCC(N)(C(=O)N[C@@H](CCO)c3ccc(F)cc3)CC2)c1Cl [Example 236]	P70S6K (T412E mutant) (Homo sapiens (Human), UniProt P23443, T412E)	6.05

----------
target: P70S6K (T412E mutant) (Homo sapiens (Human), UniProt P23443, T412E); assay: P70S6K enzyme assay; conditions: 3 nM P70S6K T412E mutant, 24 μM ATP, 1 μM FITC-AHA-AKRRRLSSLRA-OH substrate peptide, 90 min at 25° C.
Below, each entry is listed with its recorded log10 of IC50.
Quantity kind: log10 of IC50 (log10 of the value in nM)

Compound	Assay system	log10 of IC50
NCC(c1ccc(C(F)(F)F)cc1)N1CCN(c2ncnc(N)c2-c2cnoc2)CC1 (stereo not shown)	P70S6K (T412E mutant) (Homo sapiens (Human), UniProt P23443, T412E)	2.00
Cc1ccc([C@H](CCO)NC(=O)C2(N)CCN(c3ncnc(N)c3C(N)=O)CC2)cc1	P70S6K (T412E mutant) (Homo sapiens (Human), UniProt P23443, T412E)	4.36
Cc1ccc([C@H](CCO)NC(=O)C2(N)CCN(c3ncnc(N)c3Cl)CC2)cc1	P70S6K (T412E mutant) (Homo sapiens (Human), UniProt P23443, T412E)	2.93
N#Cc1c(N)ncnc1N1CCC(N)(C(=O)N[C@@H](CCO)c2ccncc2)CC1	P70S6K (T412E mutant) (Homo sapiens (Human), UniProt P23443, T412E)	3.56
Nc1ncnc(N2CCN(C(CN3CCCCC3)c3ccc(C(F)(F)F)cc3)CC2)c1Br (stereo not shown)	P70S6K (T412E mutant) (Homo sapiens (Human), UniProt P23443, T412E)	2.45
COC(=O)c1ccc([C@@H](CN2CCC2)N2CCN(c3ncnc(N)c3-c3cn[nH]c3)CC2)cc1	P70S6K (T412E mutant) (Homo sapiens (Human), UniProt P23443, T412E)	3.43
N#Cc1cccc([C@@H](CN2CCC2)N2CCN(c3ncnc(N)c3-c3ccc(F)cc3)CC2)c1	P70S6K (T412E mutant) (Homo sapiens (Human), UniProt P23443, T412E)	3.08
N#Cc1c(N)ncnc1N1CCC(N)(C(=O)N[C@@H](CCO)c2ccccc2)CC1	P70S6K (T412E mutant) (Homo sapiens (Human), UniProt P23443, T412E)	2.91
Nc1ncnc(N2CCN(C(CN3CCC3)c3ccc(C(F)(F)F)cc3)CC2)c1-c1ccc(F)cc1 (stereo not shown)	P70S6K (T412E mutant) (Homo sapiens (Human), UniProt P23443, T412E)	0.62
Nc1ncnc(N2CCC(C(c3ccc(F)cc3)N3CCCC3)CC2)c1-c1ccc(F)cc1 (stereo not shown)	P70S6K (T412E mutant) (Homo sapiens (Human), UniProt P23443, T412E)	2.40
Nc1ncnc(N2CCN(C(CN3CCC3)c3ccc(C(F)(F)F)cc3F)CC2)c1-c1cn[nH]c1 (stereo not shown)	P70S6K (T412E mutant) (Homo sapiens (Human), UniProt P23443, T412E)	3.04
N#CC(c1ccc(F)cc1)N1CCN(c2ncnc(N)c2-c2ccc(F)cc2)CC1 (stereo not shown)	P70S6K (T412E mutant) (Homo sapiens (Human), UniProt P23443, T412E)	2.38
Cn1ccc(-c2c(N)ncnc2N2CCN(C(CNC(C)(C)C(C)(C)O)c3ccc(C(F)(F)F)cc3)CC2)n1 (stereo not shown)	P70S6K (T412E mutant) (Homo sapiens (Human), UniProt P23443, T412E)	2.18
CC[C@H](NC(=O)C1(N)CCN(c2ncnc(N)c2C#N)CC1)c1ccc(Cl)cc1	P70S6K (T412E mutant) (Homo sapiens (Human), UniProt P23443, T412E)	2.15
Cc1cc(C(CN2CCC2)N2CCN(c3ncnc(N)c3-c3cn[nH]c3)CC2)ccc1Cl (stereo not shown)	P70S6K (T412E mutant) (Homo sapiens (Human), UniProt P23443, T412E)	3.28
